Reference for the values: paper PMC11800161

The reader will find MIC measurements below, all made with S. faecalis (MTCC- 0459).
MEASUREMENT_KIND: MIC (µg/mL)

Reference set (3 entries):
Cc1ccc(-c2cc(-c3ccc(OCc4ccccc4)cc3)nc3c(N=Nc4ccc(F)cc4)c(N)nn23)cc1 ... 3.91
COc1ccc(N=Nc2c(N)nn3c(-c4ccc(Cl)cc4Cl)cc(-c4ccc(OCc5ccccc5)cc4)nc23)cc1 ... 15.6
CC1(C)S[C@@H]2[C@H](NC(=O)Cc3ccccc3)C(=O)N2[C@H]1C(=O)O [Penicillin G, penicillin G, reference compound] ... 31.5

(A) Nc1nn2c(-c3ccco3)cc(-c3ccc(OCc4ccccc4)cc3)nc2c1N=Nc1ccc(F)cc1
(B) COc1ccc(N=Nc2c(N)nn3c(-c4ccc(C)cc4)cc(-c4ccc(OCc5ccccc5)cc4)nc23)cc1
Exercise: Lowest MIC? choose A or B In your reply, give the label of the chosen option.
Solution: A
